Molecular target: N-terminally GST-tagged mTOR (Homo sapiens)
Construct: truncated version: amino acids 1360-2549; purchased Life Technologies PR8683B
Sequence (P42345 1360-2549): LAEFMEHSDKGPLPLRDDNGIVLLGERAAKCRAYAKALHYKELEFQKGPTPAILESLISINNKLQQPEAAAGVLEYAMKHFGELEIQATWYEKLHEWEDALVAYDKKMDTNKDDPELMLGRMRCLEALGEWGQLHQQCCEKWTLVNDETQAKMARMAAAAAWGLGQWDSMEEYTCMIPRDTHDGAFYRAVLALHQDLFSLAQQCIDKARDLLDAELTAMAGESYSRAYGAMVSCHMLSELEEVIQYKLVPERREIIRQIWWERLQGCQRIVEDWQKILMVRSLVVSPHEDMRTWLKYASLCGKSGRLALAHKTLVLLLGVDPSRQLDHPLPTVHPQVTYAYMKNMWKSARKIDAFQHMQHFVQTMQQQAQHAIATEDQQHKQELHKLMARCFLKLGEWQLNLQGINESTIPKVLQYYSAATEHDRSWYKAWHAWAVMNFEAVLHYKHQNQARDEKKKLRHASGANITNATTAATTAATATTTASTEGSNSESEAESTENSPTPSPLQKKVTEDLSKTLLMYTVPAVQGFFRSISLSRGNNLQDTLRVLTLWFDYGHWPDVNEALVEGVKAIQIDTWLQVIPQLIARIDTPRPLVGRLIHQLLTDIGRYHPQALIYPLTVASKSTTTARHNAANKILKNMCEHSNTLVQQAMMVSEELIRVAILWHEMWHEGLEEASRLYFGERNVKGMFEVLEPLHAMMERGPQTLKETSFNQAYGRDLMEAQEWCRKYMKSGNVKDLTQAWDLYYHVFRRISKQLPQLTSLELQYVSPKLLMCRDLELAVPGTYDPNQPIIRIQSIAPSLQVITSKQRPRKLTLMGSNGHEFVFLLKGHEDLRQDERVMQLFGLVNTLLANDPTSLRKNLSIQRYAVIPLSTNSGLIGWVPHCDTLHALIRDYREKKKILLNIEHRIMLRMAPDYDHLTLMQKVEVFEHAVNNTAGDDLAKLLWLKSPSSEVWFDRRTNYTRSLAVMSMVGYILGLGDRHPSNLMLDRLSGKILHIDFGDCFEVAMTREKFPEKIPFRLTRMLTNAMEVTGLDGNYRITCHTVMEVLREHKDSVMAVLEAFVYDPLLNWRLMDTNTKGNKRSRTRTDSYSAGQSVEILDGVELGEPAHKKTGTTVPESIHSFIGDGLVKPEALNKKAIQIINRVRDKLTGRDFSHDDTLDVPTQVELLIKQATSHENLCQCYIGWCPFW
Assay: In vitro mTOR binding assay (LanthaScreen TR-FRET)
Settings: LanthaScreen kinase binding, Tracer 314; read-out: mTOR IC50 (binding)
quantity.name: IC50

* C[C@H]1COCCN1c1cc(-c2cnc(N)nc2C(F)F)nc(N2CCOCC2)n1 | 23 nM
* C[C@@H]1COCCN1c1nc(-c2cnc(N)cc2C(F)F)nc(N2[C@@H](C)COC[C@@H]2C)n1 | 10 nM
* Nc1ncc(-c2nc(N3CCOCC3)nc(N3CCOCC3)n2)c(C(F)F)n1 | 59 nM
* C[C@H]1COCCN1c1cc(-c2cnc(N)cc2C(F)F)nc(N2CCOC[C@@H]2C)n1 | 32 nM
* C[C@H]1COCCN1c1cc(-c2cnc(N)nc2C(F)(F)F)nc(N2CCOCC2)n1 [reference compound] | 1250 nM
* COC[C@@H]1COCCN1c1nc(-c2cnc(N)cc2C(F)F)nc(N2CCOC[C@H]2C)n1 | 36 nM
* Nc1cc(C(F)F)c(-c2nc(N3C4CCC3COC4)nc(N3C4CCC3COC4)n2)cn1 | 8 nM
* CC1(C)COCCN1c1nc(-c2cnc(N)cc2C(F)F)nc(N2C3COCC2COC3)n1 | 21 nM
